# System Tested: HLA-A*23:01
# Assay Summary: IEDB peptide-MHC binding, purified MHC/competitive/radioactivity; filed as Kd, often an IC50 or EC50 that approximates it; bounds were set here for any values at or beyond the usual limits of such assays
# Condition Info: source organism: SARS coronavirus Tor2
Parameter Measured: Kd

{"columns": ["Sequence Entry", "System Tested", "Kd"],
 "data": [
  ["DTSNPKTPKY", "HLA-A*23:01", "≥ 70 µM"]
]}

Please fill in: Kd reported for `ITLVYKVYY` = ≥ 57.7 µM

The recorded Kd for `YTTTIKPVSY` is ≥ 70 µM

Notebook: `FYAYLRKHF` , Kd read as ≥ 23.9 µM

====

# System Tested: HLA-A*02:02
# Assay Summary: IEDB peptide-MHC binding, purified MHC/competitive/radioactivity; filed as Kd, often an IC50 or EC50 that approximates it; bounds were set here for any values at or beyond the usual limits of such assays
# Condition Info: source organism: Mammarenavirus machupoense
Parameter Measured: Kd (µM)
Return type: number; implicit unit µM.

Per the record, `SSWAVHWFS` has Kd of 4.64

====

# System Tested: HLA-A*69:01
# Assay Summary: IEDB peptide-MHC binding, purified MHC/direct/fluorescence; filed as Kd, often an IC50 or EC50 that approximates it; bounds were set here for any values at or beyond the usual limits of such assays
# Condition Info: source organism: Influenza A virus (A/New Caledonia/20/1999(H1N1))
Parameter Measured: Kd

// Kd lookup, sequence = `WMACHSAAF` , result: ≥ 20 µM

====

# System Tested: HLA-A*02:11
# Assay Summary: IEDB peptide-MHC binding, purified MHC/competitive/fluorescence; filed as Kd, often an IC50 or EC50 that approximates it; bounds were set here for any values at or beyond the usual limits of such assays
# Condition Info: source organism: Homo sapiens
Parameter Measured: Kd

Lookup result for `SSDLRSWTF` ; measured Kd: ≥ 20 µM

====

# System Tested: HLA-A*33:01
# Assay Summary: IEDB peptide-MHC binding, purified MHC/competitive/radioactivity; filed as Kd, often an IC50 or EC50 that approximates it; bounds were set here for any values at or beyond the usual limits of such assays
# Condition Info: source organism: Mammarenavirus juninense
Parameter Measured: pKd
The scale used: pKd is minus the common logarithm of the concentration in molar units.

Per the records, this sequence ( `TAVAKCNLNH` ) has pKd equal to 5.00

====

# System Tested: HLA-A*02:02
# Assay Summary: IEDB peptide-MHC binding, purified MHC/competitive/radioactivity; filed as Kd, often an IC50 or EC50 that approximates it; bounds were set here for any values at or beyond the usual limits of such assays
# Condition Info: source organism: Vaccinia virus Copenhagen
Parameter Measured: pKd
pKd here is simply -log10 of the concentration when that concentration is written in mol/L.

Form field pKd, entry `LMDSIFVST` : 9.46

====

# System Tested: HLA-B*48:01
# Assay Summary: IEDB peptide-MHC binding, purified MHC/direct/fluorescence; filed as Kd, often an IC50 or EC50 that approximates it; bounds were set here for any values at or beyond the usual limits of such assays
# Condition Info: source organism: Influenza A virus (A/New Caledonia/20/1999(H1N1))
Parameter Measured: pKd
By convention, pKd is the negative base-10 log of a molar concentration.

Noted for `WMACHSAAF` : its pKd reads 5.84

Entry source: the Immune Epitope Database (IEDB)
